assay: NCI Yeast Anticancer Drug Screen. Data for the cln2 rad14 strain (AID 165); conditions: S. cerevisiae cln2 rad14 strain, at 50.0 µM
This is part of a sample that, as a whole, favours compounds with a hit. Of some 79,000 tested, about 15% had one in any assay. Active and inactive are the calls of the source. Cut-off read from the data, not from the text of the source: active = growth inhibition above about 70%; inactive = the rest.
API: response.call in active, inactive

# COMPOUND, CLASS LABEL
measured = [
    ("COc1cc(/C=C/C(=O)NCCCCN)ccc1O", "inactive"),
    ("O=[N+]([O-])c1ccc(/C(CBr)=N/N2CCCCC2)cc1", "inactive"),
    ("Nc1ccc([N+](=O)[O-])c(Cl)c1", "inactive"),
    ("CN(CN(C)/N=C/c1cccc([N+](=O)[O-])c1)/N=C\\c1cccc([N+](=O)[O-])c1", "inactive"),
    ("Cc1ccc(S(=O)(=O)N/N=C(\\c2nc3ccc([N+](=O)[O-])cc3[nH]c2=O)C(O)c2ccccc2Cl)cc1 (stereo unspecified)", "inactive"),
]

Kindly review the next compound as well.
Query: Look up the recorded call for COC(=O)c1cc([N+](=O)[O-])c(Sc2ncnc3nc[nH]c23)c([N+](=O)[O-])c1 in this test.
Reply: active
